EXPERIMENTAL_TARGET: Ryanodine receptor 1 (Oryctolagus cuniculus, UniProt P11716)
Sequence (P11716 whole entry): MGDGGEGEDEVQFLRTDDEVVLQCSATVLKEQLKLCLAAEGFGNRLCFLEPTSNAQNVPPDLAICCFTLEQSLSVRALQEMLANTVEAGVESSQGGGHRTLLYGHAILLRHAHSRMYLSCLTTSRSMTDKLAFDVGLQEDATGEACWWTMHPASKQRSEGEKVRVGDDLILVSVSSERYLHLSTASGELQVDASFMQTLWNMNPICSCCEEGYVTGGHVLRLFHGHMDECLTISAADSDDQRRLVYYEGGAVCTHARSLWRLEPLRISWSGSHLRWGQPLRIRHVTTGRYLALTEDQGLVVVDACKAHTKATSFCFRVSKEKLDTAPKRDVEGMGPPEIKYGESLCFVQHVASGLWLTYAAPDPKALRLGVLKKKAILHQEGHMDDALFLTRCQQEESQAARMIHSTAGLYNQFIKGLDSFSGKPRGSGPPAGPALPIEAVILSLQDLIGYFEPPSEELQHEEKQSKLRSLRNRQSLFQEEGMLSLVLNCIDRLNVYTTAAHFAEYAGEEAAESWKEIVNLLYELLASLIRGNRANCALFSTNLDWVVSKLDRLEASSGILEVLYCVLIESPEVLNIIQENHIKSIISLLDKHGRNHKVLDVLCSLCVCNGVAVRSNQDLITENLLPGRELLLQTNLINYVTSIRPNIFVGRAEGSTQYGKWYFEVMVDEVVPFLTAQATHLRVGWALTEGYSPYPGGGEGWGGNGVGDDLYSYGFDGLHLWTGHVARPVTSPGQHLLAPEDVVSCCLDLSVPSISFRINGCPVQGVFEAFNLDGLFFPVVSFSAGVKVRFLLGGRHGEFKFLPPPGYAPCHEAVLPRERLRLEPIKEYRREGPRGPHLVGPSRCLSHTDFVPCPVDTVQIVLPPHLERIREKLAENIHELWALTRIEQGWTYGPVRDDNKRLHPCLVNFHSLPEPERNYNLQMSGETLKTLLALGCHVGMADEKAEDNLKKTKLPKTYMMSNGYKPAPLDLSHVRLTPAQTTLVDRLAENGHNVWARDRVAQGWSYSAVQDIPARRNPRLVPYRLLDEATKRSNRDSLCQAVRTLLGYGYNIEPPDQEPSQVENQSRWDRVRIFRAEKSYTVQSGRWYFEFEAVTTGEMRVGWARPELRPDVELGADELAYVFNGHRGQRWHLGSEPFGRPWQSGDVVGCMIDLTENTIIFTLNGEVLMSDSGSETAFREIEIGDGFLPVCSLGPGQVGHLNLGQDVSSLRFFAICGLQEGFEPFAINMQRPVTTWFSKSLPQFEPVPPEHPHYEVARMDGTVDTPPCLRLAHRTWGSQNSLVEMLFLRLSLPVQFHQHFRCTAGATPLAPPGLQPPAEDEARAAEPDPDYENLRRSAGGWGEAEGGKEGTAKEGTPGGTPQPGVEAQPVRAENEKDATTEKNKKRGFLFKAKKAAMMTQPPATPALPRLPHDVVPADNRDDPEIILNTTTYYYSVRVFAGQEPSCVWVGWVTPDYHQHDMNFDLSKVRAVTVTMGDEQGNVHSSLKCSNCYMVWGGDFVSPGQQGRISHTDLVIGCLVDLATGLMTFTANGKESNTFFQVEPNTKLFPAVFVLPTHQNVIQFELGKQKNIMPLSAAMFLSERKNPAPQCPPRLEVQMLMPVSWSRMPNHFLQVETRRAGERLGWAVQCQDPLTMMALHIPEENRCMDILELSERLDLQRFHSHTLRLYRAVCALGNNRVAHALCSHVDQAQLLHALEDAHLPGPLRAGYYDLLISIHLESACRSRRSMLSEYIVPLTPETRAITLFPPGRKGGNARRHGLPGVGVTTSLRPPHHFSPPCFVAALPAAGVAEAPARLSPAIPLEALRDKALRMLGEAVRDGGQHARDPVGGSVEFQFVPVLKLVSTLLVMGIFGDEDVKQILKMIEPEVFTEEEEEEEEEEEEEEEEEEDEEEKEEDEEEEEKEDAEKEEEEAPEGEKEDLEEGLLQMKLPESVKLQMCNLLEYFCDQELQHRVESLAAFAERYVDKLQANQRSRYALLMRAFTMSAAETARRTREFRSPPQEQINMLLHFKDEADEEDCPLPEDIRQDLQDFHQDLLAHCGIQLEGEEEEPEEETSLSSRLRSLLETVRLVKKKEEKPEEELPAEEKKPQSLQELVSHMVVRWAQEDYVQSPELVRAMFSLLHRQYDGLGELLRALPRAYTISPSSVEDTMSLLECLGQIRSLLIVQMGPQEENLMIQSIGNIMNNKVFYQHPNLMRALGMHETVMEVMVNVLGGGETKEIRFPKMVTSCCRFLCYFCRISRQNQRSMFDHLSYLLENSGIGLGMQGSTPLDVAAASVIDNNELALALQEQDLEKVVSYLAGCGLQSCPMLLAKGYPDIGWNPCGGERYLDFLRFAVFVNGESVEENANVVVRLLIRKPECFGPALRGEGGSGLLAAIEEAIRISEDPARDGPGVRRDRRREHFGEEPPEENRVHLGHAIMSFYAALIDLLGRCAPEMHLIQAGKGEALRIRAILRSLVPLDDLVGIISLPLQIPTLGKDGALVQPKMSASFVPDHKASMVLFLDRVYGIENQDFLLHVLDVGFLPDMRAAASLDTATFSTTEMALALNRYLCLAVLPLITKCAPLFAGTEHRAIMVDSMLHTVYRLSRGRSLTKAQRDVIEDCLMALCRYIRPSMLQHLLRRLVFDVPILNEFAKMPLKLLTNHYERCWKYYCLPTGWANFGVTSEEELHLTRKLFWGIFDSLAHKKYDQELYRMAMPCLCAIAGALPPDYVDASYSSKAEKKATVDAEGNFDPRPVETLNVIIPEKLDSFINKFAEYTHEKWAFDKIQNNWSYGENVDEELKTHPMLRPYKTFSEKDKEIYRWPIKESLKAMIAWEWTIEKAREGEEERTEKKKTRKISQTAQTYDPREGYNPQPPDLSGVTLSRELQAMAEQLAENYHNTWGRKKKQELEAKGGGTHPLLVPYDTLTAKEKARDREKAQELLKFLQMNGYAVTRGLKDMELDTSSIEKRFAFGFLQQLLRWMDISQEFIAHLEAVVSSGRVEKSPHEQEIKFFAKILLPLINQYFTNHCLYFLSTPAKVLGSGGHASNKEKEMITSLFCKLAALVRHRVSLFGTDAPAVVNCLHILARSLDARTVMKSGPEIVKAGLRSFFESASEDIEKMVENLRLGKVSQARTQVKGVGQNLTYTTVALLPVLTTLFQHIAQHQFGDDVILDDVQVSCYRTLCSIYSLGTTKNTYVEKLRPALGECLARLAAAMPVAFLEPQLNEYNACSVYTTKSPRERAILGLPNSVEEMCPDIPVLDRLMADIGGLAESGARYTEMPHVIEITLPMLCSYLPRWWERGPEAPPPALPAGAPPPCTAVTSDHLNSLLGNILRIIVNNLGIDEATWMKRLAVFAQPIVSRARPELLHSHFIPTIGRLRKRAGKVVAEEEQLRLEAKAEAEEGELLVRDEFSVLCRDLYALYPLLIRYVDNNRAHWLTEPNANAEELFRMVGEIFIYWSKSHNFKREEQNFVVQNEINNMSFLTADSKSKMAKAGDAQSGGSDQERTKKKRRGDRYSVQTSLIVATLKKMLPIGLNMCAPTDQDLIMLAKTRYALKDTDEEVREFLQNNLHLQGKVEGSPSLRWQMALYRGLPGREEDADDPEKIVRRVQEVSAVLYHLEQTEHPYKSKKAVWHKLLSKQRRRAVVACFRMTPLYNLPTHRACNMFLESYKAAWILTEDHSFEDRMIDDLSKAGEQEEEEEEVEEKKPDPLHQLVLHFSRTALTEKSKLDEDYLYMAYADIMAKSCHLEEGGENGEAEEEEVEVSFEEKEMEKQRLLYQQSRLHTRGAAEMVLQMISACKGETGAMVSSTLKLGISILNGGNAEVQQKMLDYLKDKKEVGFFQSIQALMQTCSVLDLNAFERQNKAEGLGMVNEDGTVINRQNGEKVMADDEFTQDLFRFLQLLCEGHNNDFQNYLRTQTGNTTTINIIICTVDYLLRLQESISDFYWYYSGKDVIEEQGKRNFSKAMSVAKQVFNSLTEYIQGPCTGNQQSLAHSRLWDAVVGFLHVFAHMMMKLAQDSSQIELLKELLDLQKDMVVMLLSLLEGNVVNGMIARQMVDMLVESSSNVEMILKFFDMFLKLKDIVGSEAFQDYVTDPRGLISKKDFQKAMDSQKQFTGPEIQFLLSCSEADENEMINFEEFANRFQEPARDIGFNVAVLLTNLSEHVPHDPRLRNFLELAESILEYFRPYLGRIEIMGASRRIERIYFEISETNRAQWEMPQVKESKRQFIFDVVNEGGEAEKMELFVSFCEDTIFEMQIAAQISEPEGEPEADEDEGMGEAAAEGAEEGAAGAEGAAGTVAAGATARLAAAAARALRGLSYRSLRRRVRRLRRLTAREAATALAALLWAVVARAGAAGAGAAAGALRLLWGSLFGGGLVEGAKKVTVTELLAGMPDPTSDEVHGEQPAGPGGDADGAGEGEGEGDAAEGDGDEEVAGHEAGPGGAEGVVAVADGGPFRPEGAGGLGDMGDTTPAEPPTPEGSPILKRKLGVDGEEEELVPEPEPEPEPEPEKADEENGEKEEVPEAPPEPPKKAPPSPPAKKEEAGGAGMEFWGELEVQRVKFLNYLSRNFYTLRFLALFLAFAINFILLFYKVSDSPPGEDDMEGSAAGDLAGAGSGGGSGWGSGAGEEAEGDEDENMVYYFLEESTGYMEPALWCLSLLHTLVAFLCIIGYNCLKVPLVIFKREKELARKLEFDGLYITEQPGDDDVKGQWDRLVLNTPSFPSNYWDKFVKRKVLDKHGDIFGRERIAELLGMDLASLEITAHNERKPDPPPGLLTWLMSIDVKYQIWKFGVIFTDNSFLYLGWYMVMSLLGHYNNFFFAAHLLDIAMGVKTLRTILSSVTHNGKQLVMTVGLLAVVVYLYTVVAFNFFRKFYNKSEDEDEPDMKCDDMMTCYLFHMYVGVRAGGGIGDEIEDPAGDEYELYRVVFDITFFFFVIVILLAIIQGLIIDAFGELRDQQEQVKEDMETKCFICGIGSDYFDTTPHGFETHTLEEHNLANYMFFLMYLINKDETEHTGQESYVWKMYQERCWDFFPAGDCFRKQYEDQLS
EXPERIMENTAL_DETAILS: Affinity for sarcoplasmic reticular calcium release channel (SR CRC) of rabbit skeletal membrane vesicles
Cut-off 5 nM on IC50: below means 1, at or above means 0.

Request: Quick check: IC50 of CNC(=O)CCC(=O)O[C@@H]1C(C)CCC2(O)C13OC1(O)C[C@]2(C)C2(O)[C@H](OC(=O)c4ccc[nH]4)C(O)(C(C)C)C1(C)C32O (some centres not stated) under 5 nM?
Response: 0

---

Measured log10 of IC50 accompanies every entry in the list below.
EXPERIMENTAL_TARGET: UniProt P11716
EXPERIMENTAL_DETAILS: Affinity for sarcoplasmic reticular calcium release channel (SR CRC) of rabbit skeletal membrane vesicles
Please interpret these as log10 of IC50 where IC50 is in nM.

Request: Give the reported log10 of IC50 for CC1CCC2(O)C3(OC4(O)C[C@]2(C)C2(O)[C@H](OC(=O)c5ccc[nH]5)C(O)(C(C)C)C4(C)C32O)[C@@H]1OC(=O)CNC(=NC(=O)OCc1ccccc1)NC(=O)OCc1ccccc1 (stereo partly specified) (system: UniProt P11716).
Response: 2.13

Request: What measured log10 of IC50 is associated with CC1CCC2(O)C3(OC4(O)C[C@]2(C)C2(O)[C@H](OC(=O)c5ccc[nH]5)C(O)(C(C)C)C4(C)C32O)[C@@H]1OC(=O)CCN=C(N)N (stereo partly specified) on UniProt P11716?
Response: 0.04

Request: # value lookup — system UniProt P11716, readout log10 of IC50, item CC1CCC2(O)C3(OC4(O)C[C@]2(C)C2(O)[C@H](OC(=O)c5ccc[nH]5)C(O)(C(C)C)C4(C)C32O)[C@@H]1OC(=O)CCN (stereo partly specified)
Response: 0.41

Request: Notebook entry, UniProt P11716 assay: log10 of IC50 of C=C1CCC2(O)C3(OC4(O)C[C@]2(C)C2(O)[C@H](OC(=O)c5ccc[nH]5)C(O)(C(C)C)C4(C)C32O)[C@@H]1O (stereo in doubt; 2) [ANHYDRORYANIDINE] = ?
Response: 0.95

Request: Field: log10 of IC50 (UniProt P11716). Entry: CC1CCC2(O)C3(OC4(O)C[C@]2(C)C2(O)[C@H](OC(=O)c5ccc[nH]5)C(O)(C(C)C)C4(C)C32O)[C@@H]1OC(=O)CCNC(=O)OCc1ccccc1 (stereo partly specified)
Response: 0.77

Request: Enter reported log10 of IC50 observed with UniProt P11716 for CC1CCC2(O)C3(OC4(O)C[C@]2(C)C2(O)[C@H](OC(=O)c5ccc[nH]5)C(O)(C(C)C)C4(C)C32O)[C@@H]1OC(=O)CN (stereo partly specified)
Response: 0.26

---

EXPERIMENTAL_TARGET: Ryanodine receptor 1 (Oryctolagus cuniculus)
EXPERIMENTAL_DETAILS: Affinity for sarcoplasmic reticular calcium release channel (SR CRC) of rabbit skeletal membrane vesicles
In this section, each of the compounds is paired with its reported IC50.
Unit nM implied. Number only.

Please review the entries below; each comes with its answer.
{"COMPOUND": "CC1CCC2(O)C3(OC4(O)C[C@]2(C)C2(O)[C@H](OC(=O)c5ccc[nH]5)C(O)(C(C)C)C4(C)C32O)[C@@H]1OC(=O)CNC(=N)N (stereo not given in full)", "IC50 (nM)": 1.8}
{"COMPOUND": "CC1CCC2(O)C3(OC4(O)C[C@]2(C)C2(O)[C@H](OC(=O)c5ccc[nH]5)C(O)(C(C)C)C4(C)C32O)[C@@H]1OC(=O)CCN=C(NC(=O)OCc1ccccc1)NC(=O)OCc1ccccc1 (stereo not given in full)", "IC50 (nM)": 43.6}

Request: Lookup: IC50 / Ryanodine receptor 1 (Oryctolagus cuniculus) / CC1CCC2(O)C3(OC4(O)C[C@]2(C)C2(O)[C@H](OC(=O)c5ccc[nH]5)C(O)(C(C)C)C4(C)C32O)[C@@H]1OC(=O)CNC(=O)OCc1ccccc1 (stereo not given in full)
Response: 4.8
